This section presents compounds with their documented pEC50 values.
Tested on: Human immunodeficiency virus 1
PROTOCOL NOTES: Antiviral activity against HIV1 in human PBMC
Format: functional, organism-based
pEC50: −log10 of the molar value.
MEASURE NAME: pEC50

>>> df
                            molecular_string  result
 0  OC[C@H]1[C@H](n2cnc3c(O)ncnc32)S[C@@H]1CO  < 4.00
 1  Nc1ccn([C@H]2S[C@@H](CO)[C@@H]2CO)c(=O)n1    4.85
 2  O=c1ccn([C@H]2S[C@@H](CO)[C@@H]2CO)c(=O)[nH]1  < 4.00
 3  Nc1nc(O)c2ncn([C@H]3S[C@@H](CO)[C@@H]3CO)c2n1  < 4.00
 4  Cc1cn([C@@H]2S[C@H](CO)[C@H]2CO)c(=O)[nH]c1=O  < 4.00
 5   Nc1ncnc2c1ncn2[C@@H]1S[C@H](CO)[C@H]1CO  < 4.00
 6  OC[C@H]1[C@H](CO)S[C@@H]1n1cnc2c(O)ncnc21  < 4.00
 7  Nc1nc(O)c2ncn([C@@H]3S[C@H](CO)[C@H]3CO)c2n1  < 4.00
 8  Cc1cn([C@H]2S[C@@H](CO)[C@@H]2CO)c(=O)[nH]c1=O  < 4.00
 9  Nc1nc(=O)n([C@@H]2S[C@H](CO)[C@H]2CO)cc1F    5.24
10  Nc1nc(=O)n([C@@H]2S[C@H](CO)[C@H]2CO)cc1Br    4.94
